protocol-details: MRT in Wistar-Han rat at 3 mg/kg, iv measured after 24 hrs by LC-MS/MS analysis
Type: ADME, organism-based
setup-conditions: in vivo
property-name: MRT (h)
Number in h, nothing else.

Q: Reported MRT, compound C[C@@]1(N2CCN(c3cc4cc(NC(=O)[C@H]5CC56CCOCC6)ncc4cc3Cl)CC2)COC[C@@H]1O : ____
Result: 2.2

---

protocol-details: AUC in rhesus monkey at 800 mg/kg, po administered once daily for 7 days
Type: ADME, organism-based, Macaca mulatta
Set-up: time 7 day, dose 800 mg/kg, route po
setup-conditions: in vivo
property-name: AUC at 168 h (µM·h)
Number in µM·h, nothing else.

Q: Reported AUC at 168 h, compound C[C@@]1(N2CCN(c3cc4cc(NC(=O)[C@H]5CC56CCOCC6)ncc4cc3Cl)CC2)COC[C@@H]1O : ____
Result: 63

---

Tested on: rat Mdrl1 P-gp
protocol-details: Efflux ratio of apparent permeability across basolateral to apical over apical to basolateral side in MDCK cells transfected with rat Mdrl1 P-gp incubated for 3 hrs by LC-MS/MS analysis
setup-conditions: dog, MDCK-MDR1
Exercise: state measured efflux ratio at 3 h for each of the compounds provided.
Give the figure by itself; no unit, no explanation.

Q: Reported efflux ratio at 3 h, compound C[C@@]1(N2CCC(c3cc4cc(NC(=O)C5CC56CC6)ncc4cc3Cl)CC2)COC[C@@H]1O (stereo not given in full) : ____
Result: 1.5

Q: Reported efflux ratio at 3 h, compound C[C@@]1(N2CCN(c3cc4cc(NC(=O)[C@H]5CC56CCOCC6)ncc4cc3Cl)CC2)COC[C@@H]1O : ____
Result: 2.1

Q: Reported efflux ratio at 3 h, compound CC1(N2CCC(c3cc4cc(NC(=O)C5CC5)ncc4cc3Cl)CC2)COC1 : ____
Result: 0.9

Q: Reported efflux ratio at 3 h, compound CC(C)(O)[C@H]1C[C@H]1C(=O)Nc1cc2cc(C3CCN([C@]4(C)COC[C@@H]4O)CC3)c(Cl)cc2cn1 : ____
Result: 9

Q: Reported efflux ratio at 3 h, compound Cn1cc([C@H]2C[C@@H]2C(=O)Nc2cc3cc(C4CCN([C@]5(C)COC[C@@H]5O)CC4)c(Cl)cc3cn2)cn1 : ____
Result: 12

---

Exercise: state measured logD for each of the compounds provided.
protocol-details: Lipophilicity, logD of compound at pH 7 by HT-HPLC/DAD analysis
Assay type: physicochemical
setup-conditions: buffer

Q: Reported logD, compound C[C@@]1(N2CCC(c3cc4cc(NC(=O)C5CC56CC6)ncc4cc3Cl)CC2)COC[C@@H]1O (some centres not stated) : ____
Result: 3

Q: Reported logD, compound Cc1cc2cnc(NC(=O)C3CC34CC4)cc2cc1C1CCN([C@]2(C)COC[C@@H]2O)CC1 (some centres not stated) : ____
Result: 3.6

---

assay-system: hERG (KCNH2) (Homo sapiens)
Sequence (Q12809 whole entry): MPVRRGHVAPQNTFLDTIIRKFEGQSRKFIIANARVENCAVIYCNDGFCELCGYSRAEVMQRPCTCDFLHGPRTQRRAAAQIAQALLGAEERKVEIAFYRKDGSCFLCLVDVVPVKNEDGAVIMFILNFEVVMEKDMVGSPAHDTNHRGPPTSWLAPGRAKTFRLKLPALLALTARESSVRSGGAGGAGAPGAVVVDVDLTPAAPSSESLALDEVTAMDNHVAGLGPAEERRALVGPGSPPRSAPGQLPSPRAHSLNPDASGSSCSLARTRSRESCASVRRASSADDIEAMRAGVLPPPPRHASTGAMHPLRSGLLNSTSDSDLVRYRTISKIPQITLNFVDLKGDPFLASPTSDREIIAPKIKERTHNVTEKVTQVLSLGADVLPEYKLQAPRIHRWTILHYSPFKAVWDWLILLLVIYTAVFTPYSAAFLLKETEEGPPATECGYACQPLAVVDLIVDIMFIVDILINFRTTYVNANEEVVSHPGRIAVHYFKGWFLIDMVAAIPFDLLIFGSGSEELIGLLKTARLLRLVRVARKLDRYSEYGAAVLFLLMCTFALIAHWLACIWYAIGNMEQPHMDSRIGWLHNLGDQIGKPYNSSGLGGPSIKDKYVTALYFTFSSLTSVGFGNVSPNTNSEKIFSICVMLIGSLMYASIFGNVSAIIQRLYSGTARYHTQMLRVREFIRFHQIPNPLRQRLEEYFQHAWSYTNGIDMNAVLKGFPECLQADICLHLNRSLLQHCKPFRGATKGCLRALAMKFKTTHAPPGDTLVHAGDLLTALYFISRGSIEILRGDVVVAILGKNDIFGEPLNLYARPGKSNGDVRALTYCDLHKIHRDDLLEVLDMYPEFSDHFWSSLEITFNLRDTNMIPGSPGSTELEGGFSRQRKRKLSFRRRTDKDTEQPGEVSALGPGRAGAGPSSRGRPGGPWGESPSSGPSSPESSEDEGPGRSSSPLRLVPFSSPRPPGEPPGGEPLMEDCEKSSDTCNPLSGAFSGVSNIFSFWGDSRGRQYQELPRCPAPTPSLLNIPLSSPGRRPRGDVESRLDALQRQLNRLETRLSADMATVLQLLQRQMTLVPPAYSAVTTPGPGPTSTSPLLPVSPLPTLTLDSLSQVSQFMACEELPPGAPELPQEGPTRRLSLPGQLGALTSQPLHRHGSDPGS
protocol-details: Inhibition of hERG expressed in CHO cells at 30 uM by QPatch voltage clamp assay relative to control
Type: toxicity, cell-based
setup-conditions: CHO cells expressing hERG
property-name: inhibition at 30 µM
Answer as a quantity: numeral, then unit.

Q: Reported inhibition at 30 µM, compound C[C@@]1(N2CCN(c3cc4cc(NC(=O)[C@H]5CC56CCOCC6)ncc4cc3Cl)CC2)COC[C@@H]1O : ____
Result: 39%

---

protocol-details: AUC in Wistar-Han rat at 300 mg/kg by LC-MS/MS analysis
Format: ADME, organism-based
Set-up: dose 300 mg/kg
setup-conditions: in vivo
property-name: AUC (µM·h)
Number in µM·h, nothing else.

Q: Reported AUC, compound C[C@@]1(N2CCC(c3cc4cc(NC(=O)C5CC56CC6)ncc4cc3Cl)CC2)COC[C@@H]1O (stereo partly specified) : ____
Result: 458

---

protocol-details: AUCtau in Wistar-Han rat at 48 mg administered twice a day by LC-MS/MS analysis
Format: ADME
Parameters: dose 48 mg
setup-conditions: in vivo
property-name: AUC (µM·h)
Number in µM·h, nothing else.

Q: Reported AUC, compound C[C@@]1(N2CCN(c3cc4cc(NC(=O)[C@H]5CC56CCOCC6)ncc4cc3Cl)CC2)COC[C@@H]1O : ____
Result: 3

---

protocol-details: Total clearance in rhesus monkey at 1 mg/kg, iv measured after 24 hrs by LC-MS/MS analysis
Type: ADME, organism-based, Macaca mulatta
setup-conditions: in vivo
property-name: clearance

Q: Reported clearance, molecule C[C@@]1(N2CCC(c3cc4cc(NC(=O)C5CC56CC6)ncc4cc3Cl)CC2)COC[C@@H]1O (stereo partly specified) : ____
Result: 13 mL/min/kg

---

assay-system: Leucine-rich repeat serine/threonine-protein kinase 2 (Homo sapiens, UniProt Q5S007, G2019S)
Sequence (Q5S007 whole entry G2019S, the tested form may be a part): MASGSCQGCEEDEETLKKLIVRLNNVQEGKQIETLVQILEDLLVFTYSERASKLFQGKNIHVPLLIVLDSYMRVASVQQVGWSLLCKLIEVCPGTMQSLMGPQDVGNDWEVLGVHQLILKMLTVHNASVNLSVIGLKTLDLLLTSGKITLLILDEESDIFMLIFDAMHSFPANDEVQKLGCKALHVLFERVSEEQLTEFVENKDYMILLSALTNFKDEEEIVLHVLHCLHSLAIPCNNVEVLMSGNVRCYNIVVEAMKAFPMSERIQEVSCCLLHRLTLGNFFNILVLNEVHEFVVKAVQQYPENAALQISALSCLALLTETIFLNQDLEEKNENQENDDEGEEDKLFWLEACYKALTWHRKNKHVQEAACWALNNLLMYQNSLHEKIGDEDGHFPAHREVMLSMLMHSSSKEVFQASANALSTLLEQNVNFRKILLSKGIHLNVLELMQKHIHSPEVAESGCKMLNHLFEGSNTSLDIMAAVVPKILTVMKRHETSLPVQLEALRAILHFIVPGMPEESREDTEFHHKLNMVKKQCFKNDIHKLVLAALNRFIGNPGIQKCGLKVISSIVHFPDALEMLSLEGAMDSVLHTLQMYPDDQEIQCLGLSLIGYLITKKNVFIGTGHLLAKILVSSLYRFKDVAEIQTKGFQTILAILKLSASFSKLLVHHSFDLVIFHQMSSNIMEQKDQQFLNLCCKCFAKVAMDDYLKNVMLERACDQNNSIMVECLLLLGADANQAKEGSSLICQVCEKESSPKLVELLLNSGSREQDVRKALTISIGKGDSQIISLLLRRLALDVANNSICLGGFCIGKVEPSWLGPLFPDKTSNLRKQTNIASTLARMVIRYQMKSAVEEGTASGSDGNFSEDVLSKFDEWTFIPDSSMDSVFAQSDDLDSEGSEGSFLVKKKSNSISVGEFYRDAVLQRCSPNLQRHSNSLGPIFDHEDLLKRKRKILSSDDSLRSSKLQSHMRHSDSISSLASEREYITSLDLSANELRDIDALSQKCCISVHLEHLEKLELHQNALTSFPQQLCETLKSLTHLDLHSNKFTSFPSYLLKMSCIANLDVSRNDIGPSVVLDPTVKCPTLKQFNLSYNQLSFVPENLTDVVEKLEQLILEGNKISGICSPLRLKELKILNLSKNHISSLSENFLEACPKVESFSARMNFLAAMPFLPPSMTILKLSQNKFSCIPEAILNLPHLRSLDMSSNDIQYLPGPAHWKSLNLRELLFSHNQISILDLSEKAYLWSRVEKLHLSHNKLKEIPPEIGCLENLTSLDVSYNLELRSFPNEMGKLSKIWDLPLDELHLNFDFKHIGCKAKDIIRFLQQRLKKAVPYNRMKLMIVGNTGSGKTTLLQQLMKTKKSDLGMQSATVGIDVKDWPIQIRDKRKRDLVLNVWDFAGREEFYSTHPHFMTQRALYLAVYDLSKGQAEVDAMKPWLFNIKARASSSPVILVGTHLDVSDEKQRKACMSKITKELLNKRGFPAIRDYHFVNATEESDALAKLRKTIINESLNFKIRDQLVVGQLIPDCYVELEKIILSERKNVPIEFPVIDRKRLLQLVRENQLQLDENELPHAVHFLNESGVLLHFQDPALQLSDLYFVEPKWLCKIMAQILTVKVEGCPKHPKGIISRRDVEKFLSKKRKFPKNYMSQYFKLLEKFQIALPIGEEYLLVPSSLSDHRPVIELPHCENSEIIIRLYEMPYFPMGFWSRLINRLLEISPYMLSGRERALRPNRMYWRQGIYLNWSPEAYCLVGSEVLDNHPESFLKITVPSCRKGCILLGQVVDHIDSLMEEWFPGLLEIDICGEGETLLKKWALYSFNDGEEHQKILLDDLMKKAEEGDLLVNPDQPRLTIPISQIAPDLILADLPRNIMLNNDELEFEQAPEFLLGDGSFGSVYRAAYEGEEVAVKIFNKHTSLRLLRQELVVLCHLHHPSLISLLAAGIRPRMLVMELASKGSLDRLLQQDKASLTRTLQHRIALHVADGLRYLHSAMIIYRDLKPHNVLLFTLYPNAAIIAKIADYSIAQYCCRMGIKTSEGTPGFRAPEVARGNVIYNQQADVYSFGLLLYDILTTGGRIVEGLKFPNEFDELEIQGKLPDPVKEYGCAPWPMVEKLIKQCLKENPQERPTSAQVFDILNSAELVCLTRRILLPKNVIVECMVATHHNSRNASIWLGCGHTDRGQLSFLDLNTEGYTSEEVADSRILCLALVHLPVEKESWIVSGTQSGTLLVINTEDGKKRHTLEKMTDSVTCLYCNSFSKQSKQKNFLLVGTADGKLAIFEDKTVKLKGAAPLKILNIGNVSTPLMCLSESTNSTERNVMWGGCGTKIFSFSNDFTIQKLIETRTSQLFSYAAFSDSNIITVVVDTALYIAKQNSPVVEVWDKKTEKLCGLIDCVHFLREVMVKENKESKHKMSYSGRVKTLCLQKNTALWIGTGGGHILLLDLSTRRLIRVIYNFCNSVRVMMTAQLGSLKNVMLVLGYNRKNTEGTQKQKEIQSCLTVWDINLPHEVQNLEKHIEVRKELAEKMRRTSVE
protocol-details: Inhibition of recombinant N-terminal GST-fused LRRK2 […] mutant (970 to 2527 residues) (unknown origin) using LRRKtide peptide as substrate assessed as inhibition of substrate phosphorylation preincubated with compound for 15 mins followed by substrate addition and measured after 90 mins in presence of ATP by TR-FRET assay
property-name: IC50

Q: Reported IC50, molecule Cc1cc2cnc(NC(=O)C3CC34CC4)cc2cc1C1CCN([C@]2(C)COC[C@@H]2O)CC1 (stereo partly drawn) : ____
Result: < 0.08 nM

Q: Reported IC50, molecule CC(C)(O)[C@H]1C[C@H]1C(=O)Nc1cc2cc(C3CCN([C@]4(C)COC[C@@H]4O)CC3)c(Cl)cc2cn1 : ____
Result: < 0.08 nM

Q: Reported IC50, molecule C[C@@]1(N2CCC(c3cc4cc(NC(=O)C5CC5)ncc4cc3Cl)CC2)COC[C@@H]1O : ____
Result: < 0.08 nM
